Hey, just so you know, these numbers are from patent US7772252B2.

// values below are reported Ki
testedTarget: cloned human dopamine D3 receptors (Homo sapiens)
Construct: expressed in transfected cells; membrane homogenate
assayName: [N-Methyl-3H]Spiroperidol binding to cloned human dopamine D3 receptors
protocolConditions: read-out: D3 Ki
// units = nM; emit number, no label

| molecule | Ki [nM] |
| --- | --- |
| O=C(NCCCn1ccnc1)[C@@H]1C[C@H]1CN1CCN(c2nn(-c3ccc(F)cc3)c3ccsc23)CC1 | 1.45 |
| O=C(NCCc1cccc(F)c1)[C@@H]1C[C@H]1CN1CCC(c2noc3ccsc23)CC1 | 7.05 |
| CC(C)COC(=O)n1c(CCCNC(=O)C2CC2CN2CCC(c3noc4ccsc34)CC2)nc2ccccc21 (racemic) | 70.3 |
| O=C(C1CC1CN1CCC(c2noc3ccsc23)CC1)N1CCN(CCc2cccs2)CC1 (racemic) | 6.54 |
| O=C(NCC1CCCNC1)[C@@H]1C[C@H]1CN1CCN(c2csc3cc(C(F)(F)F)ccc23)CC1 (mixture of isomers) | 5.77 |
| CC(C)(C)OC(=O)N1CCCC(CNC(=O)[C@@H]2C[C@H]2CN2CCN(c3csc4cc(C(F)(F)F)ccc34)CC2)C1 (mixture of isomers) | 41.4 |
| CC1CCCCN1C(=O)[C@@H]1C[C@H]1CN1CCC(c2noc3ccsc23)CC1 (mixture of isomers) | 9.65 |
| CCC1CCC(NC(=O)C2CC2CN2CCC(n3c(=O)[nH]c4ccccc43)CC2)CC1 (racemic) | 45.2 |

Give reported Ki value for Cc1ccc(CCNC(=O)C2CC2CN2CCC(c3noc4ccsc34)CC2)cc1 (racemic)
7.44

---

// values below are reported Ki
testedTarget: cloned human dopamine D3 receptors (Homo sapiens, UniProt P35462)
Construct: expressed in transfected cells; membrane homogenate
Sequence (P35462 whole entry): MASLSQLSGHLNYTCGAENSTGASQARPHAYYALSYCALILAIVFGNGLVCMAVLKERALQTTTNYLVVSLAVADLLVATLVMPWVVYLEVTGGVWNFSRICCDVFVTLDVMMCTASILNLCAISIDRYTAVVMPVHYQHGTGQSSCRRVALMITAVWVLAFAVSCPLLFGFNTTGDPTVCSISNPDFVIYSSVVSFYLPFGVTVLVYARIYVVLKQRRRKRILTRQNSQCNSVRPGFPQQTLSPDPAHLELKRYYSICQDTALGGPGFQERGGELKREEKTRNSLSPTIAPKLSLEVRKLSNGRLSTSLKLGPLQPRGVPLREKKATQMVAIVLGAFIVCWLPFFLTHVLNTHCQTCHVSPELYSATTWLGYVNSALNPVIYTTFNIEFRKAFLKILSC
assayName: [N-Methyl-3H]Spiroperidol binding to cloned human dopamine D3 receptors
protocolConditions: read-out: D3 Ki
// units = nM; emit number, no label

| compound | unit | Ki |
| --- | --- | --- |
| COc1ccc(CCNC(=O)[C@@H]2C[C@H]2CN2CCC(c3noc4ccsc34)CC2)cc1 | nM | 22.1 |
| COc1ccc2c(c1)c(N1CCN(C[C@@H]3C[C@H]3C(=O)NC3CCN(Cc4ccc(F)cc4F)CC3)CC1)nn2C | nM | 1.63 |
| O=C(C1CC1CN1CCC(c2noc3ccsc23)CC1)N1CCC(c2ccccc2)C1 (racemic) | nM | 19.6 |

Give reported Ki value for "O=C(NCCCn1cccc1)[C@@H]1C[C@H]1CN1CCC(c2noc3ccsc23)CC1"
40.3

Give reported Ki value for "O=C([C@@H]1C[C@H]1CN1CCN(c2csc3cc(C(F)(F)F)ccc23)CC1)N1CCC(CCN2CCCC2)CC1"
0.36

---

// values below are reported Ki
testedTarget: cloned human dopamine D3 receptors (Homo sapiens, UniProt P35462)
Construct: expressed in transfected cells; membrane homogenate
assayName: [N-Methyl-3H]Spiroperidol binding to cloned human dopamine D3 receptors
protocolConditions: read-out: D3 Ki
Experimental: [N-Methyl-^3H]Spiroperidol Binding to Cloned Human Dopamine D3 Receptors […] A 200 μl sample membrane homogenate is added to 200 μl of 1% SDS, vortexed and allowed to stand for 5 min. Aliquots (25, 50 and 100 μl) of this mixture are assayed in duplicate following the standard Bio-Rad DC protein assay protocol (kit catalog number 500-0112) and using reagent S. Absorbance readings are made at 750 nm (note: the most accurate protein OD readings are between 0.1-0.5 units). […]
Numeric answer plus unit only.

These solved cases illustrate the format of a correct answer.
| compound | testedTarget | Ki |
| --- | --- | --- |
| O=C(NC1CCN(C(=O)c2ccc(Cl)nc2)CC1)C1CC1CN1CCC(c2noc3ccsc23)CC1 (racemic) | cloned human dopamine D3 receptors (Homo sapiens, UniProt P35462) | 40.6 nM |
| O=C(C1CC1CN1CCC(c2noc3ccsc23)CC1)N1CCN(Cc2ccc3c(c2)OCO3)CC1 (racemic) | cloned human dopamine D3 receptors (Homo sapiens, UniProt P35462) | 30.1 nM |
| O=C(NCCCn1ccnc1)[C@@H]1C[C@H]1CN1CCC(c2noc3c(C(F)(F)F)cccc23)CC1 | cloned human dopamine D3 receptors (Homo sapiens, UniProt P35462) | 52.4 nM |

// below: Ki requested for another compound
Give reported Ki value for "Cn1nc(N2CCN(C[C@@H]3C[C@H]3C(=O)NC3CCN(Cc4ccc(F)c(F)c4)CC3)CC2)c2sccc21"
2.17 nM
